target: HIV-1 RT reference (HIV-1 subtype B (clone BH10), UniProt P03366;P03366 P03366:600-1159,P03366:600-1039)
assay text: inhibition; second strand DNA synthesis, 33 C
condition context: two stem-loops (D and anticodon)

{"binder": "GCUCAGUCGGUAGAGCAUCAGACUUUUAAUCUGAG (ssRNA) [compound 199]", "measurement units": "nM", "IC50": 40}
